- Tested System: T1, recombinant human EGFR extracellular domain with 6xHis (human, UniProt P00533 25-645)
- T1 construct: In-house produced; also called 6xHis EGFR ECD; soluble human EGFR ECD; not shown: 6xHis tag
- Method Description: SPR competition, competitor 1260
Assay Readout: % inhibition (%)
Give just the number in %; leave the unit off.

Task: Give the reported % inhibition for this binder. antibody 1208 (antibody, human IgG1, kappa, V domains shown, Chimeric IgG1 kappa; also called clone 1208) VH: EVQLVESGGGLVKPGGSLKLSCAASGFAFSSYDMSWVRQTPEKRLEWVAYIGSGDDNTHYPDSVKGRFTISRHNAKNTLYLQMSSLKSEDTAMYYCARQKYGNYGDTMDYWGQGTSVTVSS VL: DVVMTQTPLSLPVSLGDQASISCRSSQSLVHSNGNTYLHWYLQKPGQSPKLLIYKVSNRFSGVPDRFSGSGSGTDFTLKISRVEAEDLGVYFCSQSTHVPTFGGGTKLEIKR
Output: 4

Task: Give the reported % inhibition for this binder. antibody 1344 (antibody, human IgG1, kappa, V domains shown, Chimeric IgG1 kappa) VH: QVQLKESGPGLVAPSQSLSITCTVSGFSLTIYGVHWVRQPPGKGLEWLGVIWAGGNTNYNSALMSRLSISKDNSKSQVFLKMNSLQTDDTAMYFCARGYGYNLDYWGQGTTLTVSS VL: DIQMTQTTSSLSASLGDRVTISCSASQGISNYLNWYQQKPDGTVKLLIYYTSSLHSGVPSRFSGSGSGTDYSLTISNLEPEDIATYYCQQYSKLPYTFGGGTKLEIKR
Output: 87

Task: Give the reported % inhibition for this binder. antibody 1261 (antibody, human IgG1, kappa, V domains shown, Chimeric IgG1 kappa) VH: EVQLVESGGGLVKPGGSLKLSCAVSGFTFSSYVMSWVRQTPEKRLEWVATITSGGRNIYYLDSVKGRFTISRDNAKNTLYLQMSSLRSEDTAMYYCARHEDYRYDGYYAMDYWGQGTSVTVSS VL: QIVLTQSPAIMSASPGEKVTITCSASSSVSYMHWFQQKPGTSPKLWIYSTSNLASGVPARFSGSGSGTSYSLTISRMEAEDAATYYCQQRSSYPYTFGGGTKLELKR
Output: 75

Task: Give the reported % inhibition for this binder. antibody 1320 (antibody, human IgG1, kappa, V domains shown, Chimeric IgG1 kappa) VH: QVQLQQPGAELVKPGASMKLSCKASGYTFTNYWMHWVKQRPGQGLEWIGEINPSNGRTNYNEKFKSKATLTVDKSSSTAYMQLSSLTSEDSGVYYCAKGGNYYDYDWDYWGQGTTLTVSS VL: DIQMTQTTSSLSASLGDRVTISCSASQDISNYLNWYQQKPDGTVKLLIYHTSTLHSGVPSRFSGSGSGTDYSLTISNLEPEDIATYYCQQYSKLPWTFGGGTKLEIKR
Output: -4

Task: Give the reported % inhibition for this binder. antibody 1308 (antibody, human IgG1, kappa, V domains shown, Chimeric IgG1 kappa) VH: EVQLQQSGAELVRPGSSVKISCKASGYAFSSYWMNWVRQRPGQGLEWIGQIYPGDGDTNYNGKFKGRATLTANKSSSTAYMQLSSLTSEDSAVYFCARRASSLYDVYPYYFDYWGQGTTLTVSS VL: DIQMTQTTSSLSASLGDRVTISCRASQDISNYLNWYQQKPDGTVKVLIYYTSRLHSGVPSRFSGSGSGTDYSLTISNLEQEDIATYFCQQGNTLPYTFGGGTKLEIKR
Output: 86
